Assign IC50 to each entry below.
Tested Target: rat sucrase (partially purified alpha-glucosidase from intestinal rat powder) (Rattus norvegicus)
Sequence (P23739 whole entry): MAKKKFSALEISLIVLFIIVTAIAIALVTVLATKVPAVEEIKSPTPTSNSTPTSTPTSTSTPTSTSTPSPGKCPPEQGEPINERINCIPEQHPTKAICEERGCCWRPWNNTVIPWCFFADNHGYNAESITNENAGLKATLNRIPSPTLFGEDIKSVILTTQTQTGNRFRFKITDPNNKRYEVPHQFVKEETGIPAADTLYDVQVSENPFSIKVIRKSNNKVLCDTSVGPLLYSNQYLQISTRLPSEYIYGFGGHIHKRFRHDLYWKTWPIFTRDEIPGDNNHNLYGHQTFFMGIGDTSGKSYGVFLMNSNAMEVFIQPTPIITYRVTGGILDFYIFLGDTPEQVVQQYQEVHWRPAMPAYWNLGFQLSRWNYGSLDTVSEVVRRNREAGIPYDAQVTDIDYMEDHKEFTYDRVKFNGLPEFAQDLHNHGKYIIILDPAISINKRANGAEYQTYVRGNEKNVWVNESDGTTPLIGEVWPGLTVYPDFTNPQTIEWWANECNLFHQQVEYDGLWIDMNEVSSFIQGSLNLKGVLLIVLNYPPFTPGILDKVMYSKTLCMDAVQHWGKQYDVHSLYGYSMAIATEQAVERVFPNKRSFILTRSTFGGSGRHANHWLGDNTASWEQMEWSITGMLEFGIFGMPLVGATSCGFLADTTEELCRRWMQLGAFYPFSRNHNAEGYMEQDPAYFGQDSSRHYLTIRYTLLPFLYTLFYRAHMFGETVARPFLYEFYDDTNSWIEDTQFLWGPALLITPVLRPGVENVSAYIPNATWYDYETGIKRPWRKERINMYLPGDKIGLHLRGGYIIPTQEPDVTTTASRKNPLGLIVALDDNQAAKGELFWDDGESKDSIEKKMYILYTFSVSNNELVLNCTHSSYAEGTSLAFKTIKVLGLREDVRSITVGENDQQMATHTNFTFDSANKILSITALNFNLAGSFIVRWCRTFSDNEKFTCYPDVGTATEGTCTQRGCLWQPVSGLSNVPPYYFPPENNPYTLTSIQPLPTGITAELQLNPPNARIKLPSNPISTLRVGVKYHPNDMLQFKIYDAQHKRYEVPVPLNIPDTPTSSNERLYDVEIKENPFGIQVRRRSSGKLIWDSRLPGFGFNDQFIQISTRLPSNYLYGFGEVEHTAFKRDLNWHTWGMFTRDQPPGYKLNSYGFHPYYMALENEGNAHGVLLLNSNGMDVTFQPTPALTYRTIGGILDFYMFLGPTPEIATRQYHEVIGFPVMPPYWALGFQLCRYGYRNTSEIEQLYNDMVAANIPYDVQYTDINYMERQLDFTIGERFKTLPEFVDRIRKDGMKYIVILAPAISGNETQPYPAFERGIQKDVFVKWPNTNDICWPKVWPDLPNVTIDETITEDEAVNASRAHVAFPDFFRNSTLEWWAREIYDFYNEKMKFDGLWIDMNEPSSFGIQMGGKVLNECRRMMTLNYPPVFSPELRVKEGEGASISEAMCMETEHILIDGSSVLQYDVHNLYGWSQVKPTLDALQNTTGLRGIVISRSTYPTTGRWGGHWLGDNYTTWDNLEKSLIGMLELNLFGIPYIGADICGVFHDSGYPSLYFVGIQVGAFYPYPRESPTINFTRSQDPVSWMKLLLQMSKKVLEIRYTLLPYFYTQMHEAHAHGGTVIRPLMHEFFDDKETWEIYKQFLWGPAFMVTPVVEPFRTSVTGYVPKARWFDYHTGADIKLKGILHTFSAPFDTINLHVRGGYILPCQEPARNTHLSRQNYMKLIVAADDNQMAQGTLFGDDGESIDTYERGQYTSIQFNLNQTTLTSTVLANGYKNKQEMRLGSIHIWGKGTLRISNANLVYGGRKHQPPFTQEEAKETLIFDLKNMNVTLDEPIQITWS
Output spec: scalar in nM, unitless text.

Provide one value: measured IC50 of `O=Cc1cc(NCCCCCCN2C[C@H](O)[C@@H](O)[C@H](O)[C@H]2CO)cc(-c2ncccn2)c1`
56

Provide one value: measured IC50 of `COc1cc(NCCc2ccc(CCN3C[C@H](O)[C@@H](O)[C@H](O)[C@H]3CO)cc2)cc(C2=COCCO2)c1`
726

Provide one value: measured IC50 of `O=[N+]([O-])c1cc(-c2cccnn2)ccc1NCCc1ccc(CCN2C[C@H](O)[C@@H](O)[C@H](O)[C@H]2CO)cc1`
446

Provide one value: measured IC50 of `OC[C@@H]1[C@@H](O)[C@H](O)[C@@H](O)CN1CCc1ccc(CCNc2cc(Cl)cc(C3=COCCO3)c2)cc1`
740

Provide one value: measured IC50 of `N#Cc1cc(NCCCCCCN2C[C@H](O)[C@@H](O)[C@H](O)[C@H]2CO)cc(-c2ncccn2)c1`
30

Provide one value: measured IC50 of `NS(=O)(=O)c1cc(-c2ncccn2)ccc1NCCCCCCN1C[C@H](O)[C@@H](O)[C@H](O)[C@H]1CO`
98

Provide one value: measured IC50 of `Cc1nc2cc(-c3ncccn3)ccc2n1CCCCCCN1C[C@H](O)[C@@H](O)[C@H](O)[C@H]1CO`
49

Provide one value: measured IC50 of `OC[C@@H]1[C@@H](O)[C@H](O)[C@@H](O)CN1Cc1ccc(CNc2ccc(-c3ccc[nH]3)cc2)cc1`
57

Provide one value: measured IC50 of `Cc1cc(NCc2cccc(CN3C[C@H](O)[C@@H](O)[C@H](O)[C@H]3CO)c2)cc(C2=COCCO2)c1`
36

Provide one value: measured IC50 of `[N-]=[N+]=Nc1ccc(NCCc2cnn(CCN3C[C@H](O)[C@@H](O)[C@H](O)[C@H]3CO)c2)c([N+](=O)[O-])c1`
2010

Provide one value: measured IC50 of `OC[C@@H]1[C@@H](O)[C@H](O)[C@@H](O)CN1Cc1ccc(CNc2ccc(Br)cc2)cc1`
11

Provide one value: measured IC50 of `[N-]=[N+]=Nc1ccc(NCc2cc(CCN3C[C@H](O)[C@@H](O)[C@H](O)[C@H]3CO)cs2)c([N+](=O)[O-])c1`
1

Provide one value: measured IC50 of `CS(=O)(=O)c1cc(NCCCCCCN2C[C@H](O)[C@@H](O)[C@H](O)[C@H]2CO)cc(-c2ncccn2)c1`
39

Provide one value: measured IC50 of `N#CCc1ccc(NCCCCCCN2C[C@H](O)[C@@H](O)[C@H](O)[C@H]2CO)c([N+](=O)[O-])c1`
37

Provide one value: measured IC50 of `O=[N+]([O-])c1cc(-c2ncccn2)ccc1NCCc1ccc(CCN2C[C@H](O)[C@@H](O)[C@H](O)[C@H]2CO)cc1`
773

Provide one value: measured IC50 of `N#Cc1cc(NCc2ccc(CN3C[C@H](O)[C@@H](O)[C@H](O)[C@H]3CO)cc2)cc(N2CCOCC2)c1`
52

Provide one value: measured IC50 of `Cc1cc(CN2CCOCC2)cc(NCCCCCCN2C[C@H](O)[C@@H](O)[C@H](O)[C@H]2CO)c1`
382

Provide one value: measured IC50 of `OC[C@@H]1[C@@H](O)[C@H](O)[C@@H](O)CN1CCCCCCNc1cc(Cl)cc(-c2cnccn2)c1`
175

Provide one value: measured IC50 of `COc1cc(CN2CCCO2)cc(NCCCCCCN2C[C@H](O)[C@@H](O)[C@H](O)[C@H]2CO)c1`
179

Provide one value: measured IC50 of `N#Cc1cc(-c2ncccn2)ccc1NCCCCCCN1C[C@H](O)[C@@H](O)[C@H](O)[C@H]1CO`
88

Provide one value: measured IC50 of COc1cc(NCCCCCCN2C[C@H](O)[C@@H](O)[C@H](O)[C@H]2CO)cc(C2CCCO2)c1 (stereo partly drawn)
92

Provide one value: measured IC50 of `CS(=O)(=O)c1cc(NCc2ccc(CN3C[C@H](O)[C@@H](O)[C@H](O)[C@H]3CO)cc2)cc(N2CCOCC2)c1`
160

Provide one value: measured IC50 of `[N-]=[N+]=Nc1ccc(NCCOC(=O)NCCN2C[C@H](O)[C@@H](O)[C@H](O)[C@H]2CO)c([N+](=O)[O-])c1`
363

Provide one value: measured IC50 of `[N-]=[N+]=Nc1ccc(NCc2ccc(CN3C[C@H](O)[C@@H](O)[C@H](O)[C@H]3CO)cc2)c([N+](=O)[O-])c1`
2
